meta.source: patent US10370436B2

# Test system: Psl (enriched carbohydrate purified from PAO1ΔwbpL/algD/pelA)
# EXPERIMENTAL_PROTOCOL: Psl capture binding assay (FORTEBIO OCTET 384)
# Set-up: species or system Pseudomonas aeruginosa
# ASSAY_SETUP: FIG. 3K
RECORDED_ENDPOINT: reactivity of unlabelled mAb to captured Psl

[[record]]
molecule = "WapR-001: anti-Psl antibody, VH SEQ ID NO: 5 and VL SEQ ID NO: 6 (antibody, V domains shown, WapR-001 VH; WapR-001 VL) VH: EVQLLESGGGLVQPGGSLRLSCSASGFTFSRYPMHWVRQAPGKGLEYVSDIGTNGGSTNYADSVKGRFTISRDNSKNTVYLQMSSLRAEDTAVYHCVAGIAAAYGFDVWGQGTMVTVSS VL: QAGLTQPASVSGSPGQSITISCTGTSSDIATYNYVSWYQQHPGKAPKLMIYEGTKRPSGVSNRFSGSKSGNTASLTISGLQAEDEADYYCSSYARSYTYVFGTGTELTVL"
val = "reacted"

[[record]]
molecule = "WapR-002: anti-Psl antibody, VH SEQ ID NO: 7 and VL SEQ ID NO: 8 (antibody, V domains shown, WapR-002 VH; WapR-002 VL) VH: QVQLVQSGGGLVQPGGSLRLSCSASGFTFSSYPMHWVRQAPGKGLDYVSDISPNGGSTNYADSVKGRFTISRDNSKNTLFLQMSSLRAEDTAVYYCVMGLVPYGFDIWGQGTLVTVSS VL: QTVVTQPASVSGSPGQSITISCTGTSSDVGGYNYVSWYQQHPGKAPKLMIYEVSNRPSGVSNHFSGSKSGNTASLTISGLQAEDEADYYCSSYTTSSTYVFGTGTKVTVL"
val = "reacted"

